# Method summary: qHTS for Inhibitors of human tyrosyl-DNA phosphodiesterase 1 (TDP1): qHTS in cells in absence of CPT; further: nearly all actives have a fitted effect of over 55% in size; further: potency means the concentration at half of the fitted maximal effect
# Assay conditions: DT40 Tdp1-/- hTDP1 cells, no CPT, ATP luminescence, 48 h
# Description: Human tyrosyl-DNA phosphodiesterase 1 (TDP1) is a novel repair gene, and we propose to use it as a new target for anticancer drug development. […] For the primary screen, Tdp1-/-;hTDP1 cells will be exposed to small molecules in the presence or absence of CPT, and their growth kinetics will be evaluated after 48 hours by measuring ATP activity. […] The hit compounds will then be evaluated in the presence or absence of CPT using Tdp1-/- cells. […]
The campaign covered roughly 420,000 compounds. About 64,000 (15%) were called active. Another 27% or so got no clear call; they are omitted. The list is a sample of the results.
Endpoint: Potency

O=C(NC1CCCCC1)C(c1cc2ccccc2o1)n1c(=O)c(-c2ccco2)nc2ccccc21 (stereo unspecified)    16.4 µM (active)
Cc1cccc(NC(=O)Cn2c(=O)n(CCC(C)C)c(=O)c3cccnc32)c1    inactive
COCCn1c(C)cc(C(=O)CSc2ncnc3sc4c(c23)CCC4)c1C    inactive
O=C(Nc1cc2ccccc2oc1=O)C1CCCCC1    inactive
CC1(C)Cc2c(sc3nc4n(c(=N)c23)CCCCC4)CO1    inactive
Cc1cccc(N2CCN(C(=O)CCn3c(=O)c4cccn4c4cccnc43)CC2C)c1 (stereo unspecified)    3.66 µM (active)
C[N+](C)(C)CCCCCNCC12CC3CC(CC(C3)C1)C2    inactive
CC/C(C)=N/Nc1nc2sc3c(c2c(=O)[nH]1)CC(C)(C)OC3    inactive
Cc1cccc(N2CCN(C(=O)c3cc4c(=O)oc5ccccc5c4s3)CC2C)c1 (stereo unspecified)    inactive
CCC(O)CNc1nc(-n2nc(C)cc2C)nc2sc3c(c12)CC(C)(C)OC3 (stereo unspecified)    10.3 µM (active)

# Potency lookup, item CCc1nc(N2CCN(C(C)=O)CC2)c2c3c(sc2n1)CCCC3
inactive

Source: PubChem BioAssay AID686978
